The measurements presented in this section are drawn from BigSolDB 2.1.

conditions: in ethanol, 283.15 K
readout: solubility (mole fraction)

• O=c1cc(CBr)c2ccccc2[nH]1 = 0.000211

###

conditions: in NMP, 313.15 K
readout: solubility (mole fraction)

- O=c1cc(CBr)c2ccccc2[nH]1: 0.0135

###

details: in n-propanol, 313.15 K
readout: solubility (mole fraction)

* O=c1cc(CBr)c2ccccc2[nH]1 | 0.000466

###

settings: in water, 293.15 K
readout: solubility (mole fraction)

• O=c1cc(CBr)c2ccccc2[nH]1 = 1.25e-05

###

settings: in isopropanol, 308.15 K
readout: solubility (mole fraction)

- O=c1cc(CBr)c2ccccc2[nH]1: 0.000328

###

conditions: in ethanol, 293.15 K
readout: solubility (mole fraction)

- O=c1cc(CBr)c2ccccc2[nH]1: 0.000261

###

conditions: in NMP, 288.15 K
readout: solubility (mole fraction)

• O=c1cc(CBr)c2ccccc2[nH]1 = 0.00705

###

details: in n-propanol, 303.15 K
readout: solubility (mole fraction)

* O=c1cc(CBr)c2ccccc2[nH]1 | 0.00039

###

details: in NMP, 308.15 K
readout: solubility (mole fraction)

* O=c1cc(CBr)c2ccccc2[nH]1 | 0.0119

###

details: in water, 318.15 K
readout: solubility (mole fraction)

* O=c1cc(CBr)c2ccccc2[nH]1 | 4.76e-05

###

details: in NMP, 318.15 K
readout: solubility (mole fraction)

- O=c1cc(CBr)c2ccccc2[nH]1: 0.0151

###

details: in water, 303.15 K
readout: solubility (mole fraction)

• O=c1cc(CBr)c2ccccc2[nH]1 = 2.16e-05

###

conditions: in ethanol, 288.15 K
readout: solubility (mole fraction)

- O=c1cc(CBr)c2ccccc2[nH]1: 0.000235

###

conditions: in water, 313.15 K
readout: solubility (mole fraction)

• O=c1cc(CBr)c2ccccc2[nH]1 = 3.76e-05

###

conditions: in water, 298.15 K
readout: solubility (mole fraction)

• O=c1cc(CBr)c2ccccc2[nH]1 = 1.67e-05

###

conditions: in ethanol, 313.15 K
readout: solubility (mole fraction)

* O=c1cc(CBr)c2ccccc2[nH]1 | 0.000378

###

conditions: in NMP, 293.15 K
readout: solubility (mole fraction)

- O=c1cc(CBr)c2ccccc2[nH]1: 0.0081

###

conditions: in n-propanol, 293.15 K
readout: solubility (mole fraction)

• O=c1cc(CBr)c2ccccc2[nH]1 = 0.000325

###

settings: in n-propanol, 283.15 K
readout: solubility (mole fraction)

• O=c1cc(CBr)c2ccccc2[nH]1 = 0.000269

###

details: in ethanol, 308.15 K
readout: solubility (mole fraction)

* O=c1cc(CBr)c2ccccc2[nH]1 | 0.000347

###

conditions: in n-propanol, 308.15 K
readout: solubility (mole fraction)

- O=c1cc(CBr)c2ccccc2[nH]1: 0.00043

###

conditions: in n-propanol, 278.15 K
readout: solubility (mole fraction)

- O=c1cc(CBr)c2ccccc2[nH]1: 0.000242

###

conditions: in water, 278.15 K
readout: solubility (mole fraction)

• O=c1cc(CBr)c2ccccc2[nH]1 = 4.78e-06

###

conditions: in n-propanol, 318.15 K
readout: solubility (mole fraction)

• O=c1cc(CBr)c2ccccc2[nH]1 = 0.000505

###

details: in isopropanol, 318.15 K
readout: solubility (mole fraction)

• O=c1cc(CBr)c2ccccc2[nH]1 = 0.000406

###

settings: in isopropanol, 278.15 K
readout: solubility (mole fraction)

• O=c1cc(CBr)c2ccccc2[nH]1 = 0.000152

###

settings: in NMP, 303.15 K
readout: solubility (mole fraction)

• O=c1cc(CBr)c2ccccc2[nH]1 = 0.0105

###

details: in isopropanol, 303.15 K
readout: solubility (mole fraction)

- O=c1cc(CBr)c2ccccc2[nH]1: 0.000293

###

conditions: in ethanol, 298.15 K
readout: solubility (mole fraction)

* O=c1cc(CBr)c2ccccc2[nH]1 | 0.000286

###

conditions: in isopropanol, 293.15 K
readout: solubility (mole fraction)

• O=c1cc(CBr)c2ccccc2[nH]1 = 0.000229

###

settings: in water, 308.15 K
readout: solubility (mole fraction)

- O=c1cc(CBr)c2ccccc2[nH]1: 2.88e-05

###

conditions: in isopropanol, 298.15 K
readout: solubility (mole fraction)

- O=c1cc(CBr)c2ccccc2[nH]1: 0.00026
